Overview of reported GI50 across a group of compounds:
Test system: HT-29
experiment.notes: NCI tumour cell line growth inhibition, 48 h
Active and inactive are the calls of the source. No stated cut-off is given here; in the data, active = GI50 up to about 1.1 µM and inactive = higher.

C[Si](C)(C)CC(N)=O	> 100 µM (inactive)
O=c1[nH]nc(Cc2ccc(Cl)cc2)n1Nc1ccccc1	> 100 µM (inactive)
O=C1NC(=S)NC(=O)C1C(c1ccc(Cl)cc1)C1C(=O)NC(=S)NC1=O.c1ccncc1	> 100 µM (inactive)
CC(C)(C)c1c(C(C)(C)C)c(=O)c1=O	> 100 µM (inactive)
CCCN(CCC)C(=S)Sc1nc(C)nc(N2CCN(c3nc(C)nc(SC(=S)N(CCC)CCC)c3[N+](=O)[O-])CC2)c1[N+](=O)[O-]	2.07 µM (inactive)

Could you now consider this next compound?
Prompt: Recorded GI50 for `CCOC(=O)c1nc2ccccc2nc1NCc1ccc(OC)c(OC)c1` , please?
Response: > 100 µM (inactive)
